target-desc: POLγA:A467T (Homo sapiens, UniProt P54098, A467T)
Sequence (P54098 whole entry A467T): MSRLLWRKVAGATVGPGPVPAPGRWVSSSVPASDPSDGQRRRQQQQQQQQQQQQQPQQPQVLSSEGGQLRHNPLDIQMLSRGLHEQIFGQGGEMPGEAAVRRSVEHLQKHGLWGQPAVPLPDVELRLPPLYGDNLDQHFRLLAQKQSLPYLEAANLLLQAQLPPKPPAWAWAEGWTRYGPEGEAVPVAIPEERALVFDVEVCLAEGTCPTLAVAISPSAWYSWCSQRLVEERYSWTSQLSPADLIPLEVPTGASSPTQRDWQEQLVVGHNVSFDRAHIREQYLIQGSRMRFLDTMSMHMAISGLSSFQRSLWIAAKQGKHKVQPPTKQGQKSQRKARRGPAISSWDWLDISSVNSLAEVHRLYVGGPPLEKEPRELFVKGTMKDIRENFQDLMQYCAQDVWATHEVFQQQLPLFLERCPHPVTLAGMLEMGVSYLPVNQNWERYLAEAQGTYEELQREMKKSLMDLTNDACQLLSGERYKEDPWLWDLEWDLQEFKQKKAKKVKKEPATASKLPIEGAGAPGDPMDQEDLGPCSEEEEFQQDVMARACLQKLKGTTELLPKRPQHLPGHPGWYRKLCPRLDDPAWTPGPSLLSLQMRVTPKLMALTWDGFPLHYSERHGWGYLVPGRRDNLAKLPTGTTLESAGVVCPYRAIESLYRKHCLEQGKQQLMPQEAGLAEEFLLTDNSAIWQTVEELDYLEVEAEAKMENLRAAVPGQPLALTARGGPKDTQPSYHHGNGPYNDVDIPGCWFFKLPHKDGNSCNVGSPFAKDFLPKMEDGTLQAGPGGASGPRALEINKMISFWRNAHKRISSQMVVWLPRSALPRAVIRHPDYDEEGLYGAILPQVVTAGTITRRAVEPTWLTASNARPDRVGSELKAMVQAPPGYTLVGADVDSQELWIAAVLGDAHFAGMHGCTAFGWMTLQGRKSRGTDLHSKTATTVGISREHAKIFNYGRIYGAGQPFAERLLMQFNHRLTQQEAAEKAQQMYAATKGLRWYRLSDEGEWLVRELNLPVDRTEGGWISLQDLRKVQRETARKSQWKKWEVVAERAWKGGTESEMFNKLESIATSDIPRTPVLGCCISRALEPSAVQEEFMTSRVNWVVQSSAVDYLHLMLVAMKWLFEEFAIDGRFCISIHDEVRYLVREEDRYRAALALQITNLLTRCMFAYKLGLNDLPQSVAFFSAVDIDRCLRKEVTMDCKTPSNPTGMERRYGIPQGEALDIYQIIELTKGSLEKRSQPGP
Sequence (Q9UHN1 whole entry partner): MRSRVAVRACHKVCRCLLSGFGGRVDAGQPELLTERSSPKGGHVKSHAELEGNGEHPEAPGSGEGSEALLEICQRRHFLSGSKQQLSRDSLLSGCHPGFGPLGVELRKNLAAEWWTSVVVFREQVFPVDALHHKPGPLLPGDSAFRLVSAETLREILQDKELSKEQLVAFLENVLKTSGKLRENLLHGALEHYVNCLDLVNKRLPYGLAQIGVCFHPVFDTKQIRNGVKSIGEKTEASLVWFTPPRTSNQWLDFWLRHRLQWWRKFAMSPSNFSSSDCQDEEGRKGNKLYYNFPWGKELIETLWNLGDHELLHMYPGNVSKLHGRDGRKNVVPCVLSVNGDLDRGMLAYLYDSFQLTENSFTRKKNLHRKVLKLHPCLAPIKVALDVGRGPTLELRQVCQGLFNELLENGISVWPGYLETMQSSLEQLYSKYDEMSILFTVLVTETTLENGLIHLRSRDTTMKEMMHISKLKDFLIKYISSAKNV
test-name: DNA polymerization assay, POLγA:A467T mutant
Assay type: biochemical
assay-setup: stimulation of polymerase activity, primed M13mp18 ssDNA, 37° C. 2 hours; read-out: A467T AC50
Listing: AC50 of selected compounds
measure: AC50 (µM)

>>> assay_value("Cc1cc(S(=O)(=O)Nc2csc(C(=O)N3CCCC3)n2)c(C)cc1Cl [Example 166]")
2
>>> assay_value("Cc1ccc(C)c(S(=O)(=O)Nc2cccc(C(=O)N3CCOCC3C#N)c2)c1 (stereo not drawn) [Example 7]")
37
>>> assay_value("Cc1ccc(C)c(S(=O)(=O)Nc2cccc(-c3nccs3)c2)c1 [Example 60]")
5
>>> assay_value("Cc1cc(S(=O)(=O)Nc2ccc3ccn(C)c3c2)c(C)cc1Cl [Example 72]")
37
>>> assay_value("Cc1cc(S(=O)(=O)Nc2csc(-c3ccccc3)n2)c(Cl)cc1F [Example 136]")
5
